Molecular target: T1, OsCS aa 316-583 (Oryza sativa, UniProt A2Y0X2 316-583)
T1 construct: bait, Gal4 DBD fusion; also called PN19707
T1 sequence: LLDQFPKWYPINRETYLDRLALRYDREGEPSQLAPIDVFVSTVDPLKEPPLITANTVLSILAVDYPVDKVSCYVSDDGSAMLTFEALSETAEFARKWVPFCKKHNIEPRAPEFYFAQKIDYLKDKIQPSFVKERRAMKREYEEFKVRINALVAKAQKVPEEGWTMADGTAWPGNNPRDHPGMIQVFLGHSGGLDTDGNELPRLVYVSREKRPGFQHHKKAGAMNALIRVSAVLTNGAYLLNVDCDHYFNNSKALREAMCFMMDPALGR
Assay: Y2H; output trait library

binder | binding result
OsAAB53810 aa 6-145 (other, prey, AD fusion; also called PN29086; O. sativa salT Gene Product) IGPWGGNGGSAQDISVPPKKLLGVTIYSSDAIRSIAFNYIGVDGQEYAIGPWGGGESTSTEIKLGSSEQIKEISGTHGPVYDLADIVTYLKIVTSANNTYEAGVPNGKEFSIPLQDSGHVVGFFGRSGTLIDAIGIYVHP | binds
OsPN29116 aa 1-169 (other, prey, AD fusion; also called Novel Protein PN29116, Fragment) GRKPVAAQHYNKGDKDGTSTGSRCTSVAWVPEREGIFVVSHSDGNLYVYDKCKDGNTECTFPAIKDPAQLMISHAKSSKSNPIARWHVCQGSINAISFSPDGAYLATVGRDGYLRVFDFSKEQLIFGGKSYYGALLCCTWSSDGKYLLTGGEDDLVQVWSMDDRKIVAW | binds
